# Tested on: Pseudomonas aeruginosa
# ASSAY_PROTOCOL: MIC by agar dilution against 61 strains of Pseudomonas aeruginosa, secondary evaluation
# Format: cell-based
# MEASUREMENT_SETUP: Pseudomonas aeruginosa, BBRI Pa-No. 36, Table 7; read-out: MIC
# Method: Minimum inhibitory concentrations (MIC) of BB-S520 were determined by serial two-fold agar dilution method using Steers' apparatus on Meuller-Hinton agar plate against 31 test organisms for the primary screening and also against 61 strains of Pseudomonas aeruginosa for the secondary evaluation. The results are shown in Table 1 and Table 2 along with those of BB-S514 and sulbenicillin. […]
Listed here: items and their measured MIC.

Worked examples, 3 compounds total:
# COMPOUND, MIC
measured = [
    ("CCN1CCN(C(=O)NC(C(=O)N[C@@H]2C(=O)N3[C@@H]2SC(C)(C)[C@@H]3C(=O)O)c2ccccc2)C(=O)C1=O (stereo partly shown)", "0.4 µg/mL"),
    ("NC(=O)OCC1=C(C(=O)O)N2C(=O)C(NC(=O)[C@H](NC(=O)c3cnc4cccnc4c3O)c3ccc(O)cc3)C2SC1 (single isomer, unassigned)", "< 0.2 µg/mL"),
    ("CC1(C)S[C@@H]2[C@H](NC(=O)C(c3ccccc3)S(=O)(=O)O)C(=O)N2[C@H]1C(=O)O (stereo partly shown)", "0.8 µg/mL"),
]

Read the next record carefully.
Would you mind telling me what MIC value was observed for NC(=O)OCC1=C(C(=O)O)N2C(=O)C(NC(=O)[C@H](NC(=O)c3cnc4cccnc4c3O)c3ccccc3)[C@H]2SC1 (stereo partly shown) ?
< 0.2 µg/mL

====

# ASSAY_PROTOCOL: Mouse blood levels after subcutaneous injection
# Type: in vivo
# MEASUREMENT_SETUP: blood, sc, 40 mg/kg, subcutaneous, 40 Mgm./Kg., 0.25 hours, read-out: Blood Levels
PARAMETER_MEASURED: concentration at 0.25 h (ng/mL)
Write the number in ng/mL without appending the unit.

I'd like to know its concentration at 0.25 h. The compound in question is CC1(C)S[C@@H]2[C@H](NC(=O)C(c3ccccc3)S(=O)(=O)O)C(=O)N2[C@H]1C(=O)O (stereo partly shown) [Sulbenicillin, sulbenicillin]
22000

====

Property: MIC; scope: individual compounds
# Tested on: Pseudomonas aeruginosa
# ASSAY_PROTOCOL: MIC by agar dilution against 61 strains of Pseudomonas aeruginosa, secondary evaluation
# Format: cell-based
# MEASUREMENT_SETUP: Pseudomonas aeruginosa, BBRI Pa-No. 35, Table 7; read-out: MIC
# number then unit; no other words

Consider the following illustrative entries.
# COMPOUND, PARAMETER_MEASURED, VALUE_REPORTED
data = [
    ("NC(=O)OCC1=C(C(=O)O)N2C(=O)C(NC(=O)[C@H](NC(=O)c3cnc4cccnc4c3O)c3ccc(O)cc3)C2SC1 (single isomer, unassigned)", "MIC", "1.6 µg/mL"),
    ("NC(=O)OCC1=C(C(=O)O)N2C(=O)C(NC(=O)[C@H](NC(=O)c3cnc4cccnc4c3O)c3ccccc3)[C@H]2SC1 (stereo partly shown)", "MIC", "6.3 µg/mL"),
    ("CCN1CCN(C(=O)NC(C(=O)N[C@@H]2C(=O)N3[C@@H]2SC(C)(C)[C@@H]3C(=O)O)c2ccccc2)C(=O)C1=O (stereo partly shown)", "MIC", "6.3 µg/mL"),
]

Now take the following compound into account.
What value of MIC has been recorded for this entry: CC1(C)S[C@@H]2[C@H](NC(=O)C(c3ccccc3)S(=O)(=O)O)C(=O)N2[C@H]1C(=O)O (stereo partly shown)
50 µg/mL

src = patent US4138554A
